Recorded activation by entry
Biological target: Muscarinic acetylcholine receptor M1 (Homo sapiens)
Assay: human M1 muscarinic receptor agonists, primary screen, Fluo-8 calcium fluorescence, CHO-K1 cells, HTS (AID 588814);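 note: peak over basal fluorescence ratio within a 140 s kinetic read after compound addition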
Details: CHO-K1 hM1, Fluo-8 calcium fluorescence, agonist mode; at 3 µM; stronger effect = higher value; 0% DMSO, 100% acetylcholine EC100
About 1,200 (0.33%) of roughly 360,000 compounds were called active. Only a selection was taken, and actives are over-represented in it overall.

| compound | targetUnderTest | activation / % |
| --- | --- | --- |
| COc1ccc(C(=O)NC(=S)NNC(=O)c2c(-c3ccccc3)noc2C)cc1 | Muscarinic acetylcholine receptor M1 (Homo sapiens) | 44.6 |
| Cc1nn(C)cc1N1C(=O)c2cccc3c(N)ccc(c23)C1=O | Muscarinic acetylcholine receptor M1 (Homo sapiens) | 44.5 |
| Cc1[nH]c2ccccc2c1C(=O)COC(=O)c1c(-c2ccccc2)noc1C | Muscarinic acetylcholine receptor M1 (Homo sapiens) | -5.12 |
| Cn1cc(C2OC(=O)c3ccccc32)c2ccccc21 (stereo not given) | Muscarinic acetylcholine receptor M1 (Homo sapiens) | 0.52 |
| COc1ccc(C(=O)NC(=O)CSc2nnc(-c3ccco3)n2-c2ccccc2)cc1 | Muscarinic acetylcholine receptor M1 (Homo sapiens) | -3.2 |
| Cc1ccc(/C=C/C(=O)OCC(=O)NCc2ccc(Cl)cc2)o1 | Muscarinic acetylcholine receptor M1 (Homo sapiens) | -3.98 |
| CC1CCN(C(=O)CSc2nnc(-c3ccco3)n2N)CC1 | Muscarinic acetylcholine receptor M1 (Homo sapiens) | -4.05 |
| Cc1onc(-c2ccccc2)c1C(=O)N1CCN(S(=O)(=O)c2ccccc2C(F)(F)F)CC1 | Muscarinic acetylcholine receptor M1 (Homo sapiens) | -3.88 |
| O=C(/C=C/c1ccc(F)cc1)NC(=S)NNC(=O)c1cccnc1 | Muscarinic acetylcholine receptor M1 (Homo sapiens) | 1.15 |
| Cc1oc2nc(SCC(=O)Nc3ccc(S(N)(=O)=O)cc3)nc(NC(=O)c3ccccc3)c2c1C | Muscarinic acetylcholine receptor M1 (Homo sapiens) | -4.87 |

###

Target: Muscarinic acetylcholine receptor M1 (Homo sapiens) (UniProt P11229)
Sequence (P11229 whole entry, looked up): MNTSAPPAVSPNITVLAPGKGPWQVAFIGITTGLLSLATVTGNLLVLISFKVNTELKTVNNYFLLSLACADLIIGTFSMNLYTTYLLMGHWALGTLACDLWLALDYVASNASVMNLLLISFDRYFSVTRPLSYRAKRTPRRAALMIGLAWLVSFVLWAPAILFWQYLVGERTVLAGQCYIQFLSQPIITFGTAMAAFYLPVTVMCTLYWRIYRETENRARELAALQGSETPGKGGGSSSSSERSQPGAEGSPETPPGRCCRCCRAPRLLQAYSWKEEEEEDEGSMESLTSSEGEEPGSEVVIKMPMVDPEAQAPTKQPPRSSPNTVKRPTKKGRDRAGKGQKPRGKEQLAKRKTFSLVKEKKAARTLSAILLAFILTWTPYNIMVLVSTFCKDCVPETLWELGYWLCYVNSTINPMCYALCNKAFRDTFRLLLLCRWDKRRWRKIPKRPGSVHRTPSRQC
Assay: human M1 muscarinic receptor agonists, primary screen, Fluo-8 calcium fluorescence, CHO-K1 cells, HTS (AID 588814)
Conditions: CHO-K1 hM1, Fluo-8 calcium fluorescence, agonist mode; at 3 µM; stronger effect = higher value; 0% DMSO, 100% acetylcholine EC100
Out of some 360,000 compounds screened, about 1,200 (0.33%) were called active. The entries come from a sample that favours actives as a whole.
Reported activation values are given for each entry in this list.
measuredQuantity: activation (%)

| compound | u | endpointValue |
| --- | --- | --- |
| Cc1nc2ccccc2n1C(=O)N1CCOCC1 | % | -1.92 |
| CC1Cc2ccccc2N1CC(=O)Nc1ccc2c(c1)OC(F)(F)O2 (stereo not given) | % | -7.22 |
| C[C@H]1CN([C@@H](C)CO)C(=O)c2cc(C3=CCCCC3)cnc2O[C@@H]1CN(C)C(=O)Cc1ccccc1 | % | -6.56 |
| COc1ccc(C(C#N)=C2C=CC(=NO)c3ccccc32)cc1 | % | -8 |
| CCOC(=O)[C@H]1[C@H]2COc3cc(OC)ccc3[C@@H]2N2C(=O)N(c3ccc(Br)cc3)C(=O)[C@@]12C | % | -5.08 |

###

Reported activation values are given for each entry in this list.
Biological target: Muscarinic acetylcholine receptor M1 (Homo sapiens) (UniProt P11229)
Test: human M1 muscarinic receptor agonists, primary screen, Fluo-8 calcium fluorescence, CHO-K1 cells, HTS (AID 588814);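 note: peak over basal fluorescence ratio within a 140 s kinetic read after compound addition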
Conditions: CHO-K1 hM1, Fluo-8 calcium fluorescence, agonist mode; at 3 µM; stronger effect = higher value; 0% DMSO, 100% acetylcholine EC100
In all, about 360,000 compounds went through this assay and about 1,200 (0.33%) were called active. This excerpt belongs to a sample that is enriched for actives.

| compound | u | activation |
| --- | --- | --- |
| Cc1cc(N/C=C\C(=O)c2ccc(Cl)c(Cl)c2)no1 | % | -3.12 |
| COc1ccc(/C=C/C(=O)c2c(O)cc(OC)cc2OC)cc1 | % | -5.79 |
| NC(=O)C1CCN(C(=O)c2cn(-c3ccccc3)nc2-c2cccnc2)CC1 | % | -0.33 |
| CCOc1ccc(S(=O)(=O)N2CCC(C(=O)NCC(=O)Nc3cccc(Cl)c3C)CC2)cc1 | % | -2.79 |
| Cc1ccc(CN2C(=O)N/C(=C/c3cc(C)n(-c4ccccn4)c3C)C2=O)cc1 | % | -1.17 |
| CN(CC(=O)NCCc1ccc(S(N)(=O)=O)cc1)CC(=O)Nc1ccc(Cl)cc1 | % | -1.41 |
| Cc1ccc(Cn2c(C)c(C(=O)NCc3ccccc3C(F)(F)F)sc2=O)cc1 | % | -6.02 |
| Cc1ccc(-c2nn(-c3ccccc3)cc2C(=O)NC2CCC(O)CC2)cc1 (configuration not stated) | % | 0.01 |
| CCOC(=O)C1(Cc2cccc(OC)c2)CCCN(S(=O)(=O)c2cccnc2)C1 (configuration not stated) | % | -1.49 |
| CN(C)CCNC(=O)c1ccc(Cl)c2cc3ccccc3nc12 | % | -6.82 |
| O=C(/C=C(O)/C=C/c1ccc(O)cc1)/C=C/c1ccc(O)cc1 | % | 30 |
| CN(C)c1ccc(/C=C2\NC(=S)N(Cc3ccccc3)C2=O)cc1 | % | 47.3 |
| FC(F)Oc1ccccc1C1CC(c2ccc(Br)s2)Nc2ncnn21 (configuration not stated) | % | 0.72 |
| Cc1c(C(=O)NCc2ccc(C#N)cc2)sc(=O)n1Cc1ccc(C(=O)N(C)C)cc1 | % | -5.38 |
| CN(C(=O)CN1C(=O)NC(C)(CCc2ccccc2)C1=O)c1ccccc1 (configuration not stated) | % | -0.73 |
| c1ccc2c(c1)OCC(CNc1ncnc3nc[nH]c13)O2 (configuration not stated) | % | 134 |
| CCc1ccc(-c2cc3c(=O)n(CC(=O)NCCCN4CCN(Cc5ccccc5)CC4)nc(C)n3n2)cc1 | % | 0.73 |
| COc1ccc(CCNc2ncnc3nc[nH]c23)cc1OC | % | 3.98 |
| CC(C)COC(=O)c1ccc(NC(=O)C2C3C=CC(C3)C2C(=O)O)cc1 (configuration not stated) | % | -3 |
| CC(C)C[C@H]1CN=C(Nc2ccccc2)N1CC1CCCCC1 | % | -8.04 |
| COc1ccccc1S(=O)(=O)c1c(C)cc(C)[nH]c1=O | % | -1.5 |
| COc1ccc(N2C(=O)CCC(C(=O)Nc3ccccn3)C2c2ccc(OC)c(OC)c2)cc1 (configuration not stated) | % | 5.33 |

###

Listed below: activation values for each entry.
Target: Muscarinic acetylcholine receptor M1 (Homo sapiens)
Assay: human M1 muscarinic receptor agonists, primary screen, Fluo-8 calcium fluorescence, CHO-K1 cells, HTS (AID 588814);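 note: peak over basal fluorescence ratio within a 140 s kinetic read after compound addition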
Conditions: CHO-K1 hM1, Fluo-8 calcium fluorescence, agonist mode; at 3 µM; stronger effect = higher value; 0% DMSO, 100% acetylcholine EC100
In all, about 360,000 compounds went through this assay and about 1,200 (0.33%) were called active. The list comes from a sample in which actives are over-represented; it also holds close analogues and randomly drawn compounds.

| compound | u | activation |
| --- | --- | --- |
| O=S(=O)(c1cccs1)N1CCN(CCOc2ccccc2)CC1 | % | -2.7 |
| O=C1CCN(CCc2ccccc2)CCN1CCOc1ccccc1 | % | -5.27 |
| Nc1ncnc2c1ncn2[C@@H]1O[C@H](C(=O)NS(=O)(=O)c2c(Cl)nc3sccn23)[C@@H](O)[C@H]1O | % | -1 |
| O=C(c1cnccn1)N1CCN(S(=O)(=O)c2cccc(Cl)c2)CC1 | % | -0.88 |
| CSCc1cc(N(C)C)nc(SCc2ccc(Cl)cc2Cl)n1 | % | 1.65 |
| NS(=O)(=O)c1ccc(NC(=O)COC(=O)c2ccco2)cc1 | % | -0.06 |
| COC(=O)c1cc(NS(=O)(=O)c2ccc3c(c2)c(=O)n(C)c(=O)n3C)cc(C(=O)OC)c1 | % | -0.41 |
| NS(=O)(=O)c1ccc(NC(=O)COC(=O)CCc2c[nH]c3ccccc23)cc1 | % | -0.53 |
| O=C(COC(=O)c1ccc(Cl)nc1)NCc1ccc2c(c1)OCO2 | % | -4.12 |
| Cc1ccc(/C=N/NC(=O)C(NC(=O)c2ccccc2)c2n[nH]c(=O)c3ccccc23)cc1 (stereo not given) | % | -2.92 |

###

Target: Muscarinic acetylcholine receptor M1 (Homo sapiens) (UniProt P11229)
Test: human M1 muscarinic receptor agonists, primary screen, Fluo-8 calcium fluorescence, CHO-K1 cells, HTS (AID 588814);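 note: peak over basal fluorescence ratio within a 140 s kinetic read after compound addition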
Settings: CHO-K1 hM1, Fluo-8 calcium fluorescence, agonist mode; at 3 µM; 0% DMSO, 100% acetylcholine EC100
The whole screen tested about 360,000 compounds, of which about 1,200 (0.33%) were called active.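 The calls were made as follows: active = activation above the run's mean compound activation plus 3 SD (cut at about 16% in these data); inactive = the rest.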 The list comes from a sample in which actives are over-represented; it also holds close analogues and randomly drawn compounds.
Classes used: active, inactive

| compound | categoryLabel |
| --- | --- |
| CCOc1ccc(NS(=O)(=O)c2ccc(C(=O)NCC(c3ccccc3OC)N3CCCC3)cc2)cc1 (stereo not given) | active |
| CCN1/C(=C\c2ccc3ccccc3[n+]2CC)Sc2cc(C)ccc21 | active |
| CSc1nc2nc(-c3cccc(C(F)(F)F)c3)ccn2n1 | inactive |
| COc1ccc(OC)c(NC(=O)c2cc(-c3cc(F)ccc3OCC3CCCO3)n[nH]2)c1 (stereo not given) | inactive |
| NNC(=O)COc1ccc(C2SCCS2)cc1 | inactive |
| O[C@H]1C[C@H](c2ccc(Cl)cc2)N(Cc2cccs2)C[C@@H]1n1cc(C2CC2)nn1 | inactive |
| CCCNC(=O)C1CC(=O)N(c2ccc(OCc3ccccc3)cc2)C1 (stereo not given) | inactive |
| O=C(CN(Cc1ccccc1)C(=O)CCC(=O)Nc1ccccn1)NCCc1ccccc1 | inactive |
| COc1ccc(OC)c(NC(=O)CN(Cc2ccc(Cl)cc2)S(C)(=O)=O)c1 | inactive |
| Cn1nc(C(F)(F)F)c2cc(NC(=O)OCC(C)(C)C)sc21 | inactive |
